Consider the following compounds; for each one, report its combination Emax.
tested on: 769-P (Kidney Carcinoma); test: combination Emax (second highest fraction inhibited in the dose matrix, 72 h); higher = more inhibition; extreme values may be limits of the assay
Give a plain numeric answer without units written out.

Query string: Determine reported combination Emax for Cn1cnc2c(F)c(Nc3ccc(Br)cc3Cl)c(C(=O)NOCCO)cc21 [Selumetinib] + CCN(CCO)CCCOc1ccc2c(Nc3cc(CC(=O)Nc4cccc(F)c4)[nH]n3)ncnc2c1 [AZD2811] (first compound max 10 µM, 7x7, partner max 1 µM) ; test system: 769-P (Kidney Carcinoma).
Result string: 0.356

Query string: Return reported combination Emax for target or system 769-P (Kidney Carcinoma), item N#Cc1cnc(Nc2cc(NC[C@H]3CNCCO3)c(C(F)(F)F)cn2)cn1 [SRA737] + CCc1c2c(nc3ccc(O)cc13)-c1cc3c(c(=O)n1C2)COC(=O)[C@]3(O)CC [SN-38] (first compound max 10 µM, 7x7, partner max 0.3 µM) .
Result string: 0.9

Query string: Retrieve combination Emax on 769-P (Kidney Carcinoma); query Cc1cc2ncnn2cc1Nc1ncc2c(n1)n(C1CCOCC1)c(=O)n2C [AZD7648] + C=CCn1c(=O)c2cnc(Nc3ccc(N4CCN(C)CC4)cc3)nc2n1-c1cccc(C(C)(C)O)n1 [AZD1775] (first compound max 10 µM, partner max 1 µM)
Result string: 0.829

Query string: Would you please give the reported combination Emax of CC1(C)CCC(CN2CCN(c3ccc(C(=O)NS(=O)(=O)c4ccc(NCC5CCOCC5)c([N+](=O)[O-])c4)c(Oc4cnc5[nH]ccc5c4)c3)CC2)=C(c2ccc(Cl)cc2)C1 [Venetoclax] + C[C@@H](Nc1cc(F)cc(F)c1)c1cc(C(=O)N(C)C)cc2c(=O)cc(N3CCOCC3)oc12 [AZD8186] (first compound max 1 µM, 7x7, partner max 3 µM) with 769-P (Kidney Carcinoma)?
Result string: 0.297

---

system: NB13 (Neuroblastoma); assay: Bliss excess, mean over the matrix (fraction); higher = more synergy
Exercise: state measured Bliss excess for each of the compounds provided.

Query string: Consider the compound COc1cc2ncnc(Nc3ccc(F)c(Cl)c3)c2cc1OCCCN1CCOCC1 [Gefitinib] + CC(C)n1c(=O)n(C)c2cnc3cc(F)c(-c4ccc(OCCCN5CCCCC5)nc4)cc3c21 [AZD1390] (first compound max 10 µM, 7x7, partner max 0.3 µM) and give its recorded Bliss excess.
Result string: -0.0433

Query string: Identify Bliss excess associated with the compound Cc1cc2ncnn2cc1Nc1ncc2c(n1)n(C1CCOCC1)c(=O)n2C [AZD7648] + O=C(c1cc(Cc2n[nH]c(=O)c3ccccc23)ccc1F)N1CCN(C(=O)C2CC2)CC1 [Olaparib] (first compound max 10 µM, 7x7, partner max 10 µM)
Result string: -0.0247

Query string: For NC1(C(=O)N[C@@H](CCO)c2ccc(Cl)cc2)CCN(c2ncnc3[nH]ccc23)CC1 [Capivasertib] + C[C@@H]1COCCN1C2=NC(=NC(=C2)C3(CC3)[S@](=N)(=O)C)C4=C5C=CNC5=NC=C4 [AZD6738] (first compound max 10 µM, 7x7, partner max 10 µM) , write its Bliss excess.
Result string: -0.0823

Query string: Determine its reported Bliss excess: CS(=O)(=O)CCNCc1ccc(-c2ccc3ncnc(Nc4ccc(OCc5cccc(F)c5)c(Cl)c4)c3c2)o1 [Lapatinib] + NC1(c2ccc(-c3nc4ccn5c(=O)[nH]nc5c4cc3-c3ccccc3)cc2)CCC1 [MK-2206] (first compound max 10 µM, 7x7, partner max 10 µM)
Result string: -0.0348

Query string: Return Bliss excess for the following compound: C[C@@H](c1ccc2nccn2c1)n1nnc2ncc(-c3cnn(C)c3)nc21 [Savolitinib] + Cc1c2c(nn1C)CSCc1cc(n(C)n1)CSc1cc(c3ccccc3c1)OCCCc1c(C(=O)O)n(C)c3c-2c(Cl)ccc13 [AZD5991] (first compound max 1 µM, 7x7, partner max 1 µM)
Result string: -0.0206

Query string: Answer with the recorded Bliss excess for the compound listed here: CC(=O)c1c(C)c2cnc(Nc3ccc(N4CCNCC4)cn3)nc2n(C2CCCC2)c1=O [Palbociclib] + CC1(C)CCC(CN2CCN(c3ccc(C(=O)NS(=O)(=O)c4ccc(NCC5CCOCC5)c([N+](=O)[O-])c4)c(Oc4cnc5[nH]ccc5c4)c3)CC2)=C(c2ccc(Cl)cc2)C1 [Venetoclax] (first compound max 10 µM, 7x7, partner max 1 µM)
Result string: -0.103

Query string: Name the recorded Bliss excess of the compound listed here: Cc1nc(-c2cn3c(n2)-c2ccc(-c4cnn(C(C)(C)C(N)=O)c4)cc2OCC3)n(C(C)C)n1 [Taselisib] + O=C(Nc1ccc2[nH]nc(-c3ccncc3)c2c1)[C@@H]1CCN(CC(=O)N2CCN(c3ccc(-c4ncccn4)cc3)CC2)C1 [SCH772984] (first compound max 10 µM, 7x7, partner max 5 µM)
Result string: 0.0664

---

Consider the following compounds; for each one, report its Bliss excess.
tested on: G-402 (Other Solid Carcinomas); experiment: Bliss excess, mean over the matrix (fraction); higher = more synergy

Query string: Give Bliss excess for C[C@@H](c1ccc2nccn2c1)n1nnc2ncc(-c3cnn(C)c3)nc21 [Savolitinib] + Cc1c2c(nn1C)CSCc1cc(n(C)n1)CSc1cc(c3ccccc3c1)OCCCc1c(C(=O)O)n(C)c3c-2c(Cl)ccc13 [AZD5991] (first compound max 1 µM, 7x7, partner max 1 µM) tested on G-402 (Other Solid Carcinomas).
Result string: -0.0611

Query string: Give G-402 (Other Solid Carcinomas) Bliss excess for the following compound: CC(=O)Nc1cccc(-n2c(=O)n(C3CC3)c(=O)c3c(Nc4ccc(I)cc4F)n(C)c(=O)c(C)c32)c1 [Trametinib] + Cc1nc(-c2cn3c(n2)-c2ccc(-c4cnn(C(C)(C)C(N)=O)c4)cc2OCC3)n(C(C)C)n1 [Taselisib] (first compound max 1 µM, 7x7, partner max 10 µM)
Result string: 0.0104

Query string: Send back G-402 (Other Solid Carcinomas) Bliss excess of CC1(C)CCC(CN2CCN(c3ccc(C(=O)NS(=O)(=O)c4ccc(NCC5CCOCC5)c([N+](=O)[O-])c4)c(Oc4cnc5[nH]ccc5c4)c3)CC2)=C(c2ccc(Cl)cc2)C1 [Venetoclax] + C[C@@H](Nc1cc(F)cc(F)c1)c1cc(C(=O)N(C)C)cc2c(=O)cc(N3CCOCC3)oc12 [AZD8186] (first compound max 1 µM, 7x7, partner max 3 µM) only.
Result string: -0.0612

Query string: Param request: Bliss excess | system G-402 (Other Solid Carcinomas) | item Cc1c2c(nn1C)CSCc1cc(n(C)n1)CSc1cc(c3ccccc3c1)OCCCc1c(C(=O)O)n(C)c3c-2c(Cl)ccc13 [AZD5991] + CC1(C)CCC(CN2CCN(c3ccc(C(=O)NS(=O)(=O)c4ccc(NCC5CCOCC5)c([N+](=O)[O-])c4)c(Oc4cnc5[nH]ccc5c4)c3)CC2)=C(c2ccc(Cl)cc2)C1 [Venetoclax] (first compound max 1 µM, 7x7, partner max 1 µM)
Result string: -0.0461

Query string: Give Bliss excess for COc1cccc(OCCCN)c1-c1cc(Nc2cnc(C#N)cn2)n[nH]1 [Prexasertib] + CCc1c2c(nc3ccc(O)cc13)-c1cc3c(c(=O)n1C2)COC(=O)[C@]3(O)CC [SN-38] (first compound max 1 µM, 7x7, partner max 0.3 µM) tested on G-402 (Other Solid Carcinomas).
Result string: -0.0336

---

Record form. Attribute: combination Emax. Fill in for each entry.
system: UACC-812 (Breast Carcinoma); assay: combination Emax (second highest fraction inhibited in the dose matrix, 72 h); higher = more inhibition; extreme values may be limits of the assay
Answer with the value's number alone.

Query string: Identify measured combination Emax associated with N#Cc1cnc(Nc2cc(NC[C@H]3CNCCO3)c(C(F)(F)F)cn2)cn1 [SRA737] + Nc1ccn([C@@H]2O[C@H](CO)[C@@H](O)C2(F)F)c(=O)n1 [Gemcitabine] (first compound max 10 µM, 7x7, partner max 0.3 µM)
Result string: 0.592

Query string: Return reported combination Emax. Input compound: COc1nnc2ccc(N3CCC(c4ccc(OCCN5CCN(C)C(=O)[C@H]5C)cc4)CC3)nn12 [AZD5153] + C[C@@H]1COCCN1C2=NC(=NC(=C2)C3(CC3)[S@](=N)(=O)C)C4=C5C=CNC5=NC=C4 [AZD6738] (first compound max 1 µM, 7x7, partner max 10 µM)
Result string: 0.479

Query string: Give the reported combination Emax for this compound. CN(CCO)CC[C@H](CSc1ccccc1)Nc1ccc(S(=O)(=O)NC(=O)c2ccc(N3CCC([C@@H](O)c4ccccc4-c4ccc(Cl)cc4)CC3)cc2)cc1S(=O)(=O)C(F)(F)F [AZD4320] + CS(=O)(=O)CCNCc1ccc(-c2ccc3ncnc(Nc4ccc(OCc5cccc(F)c5)c(Cl)c4)c3c2)o1 [Lapatinib] (first compound max 1 µM, 7x7, partner max 10 µM)
Result string: 0.616

Query string: # return recorded combination Emax for input CN(CCO)CC[C@H](CSc1ccccc1)Nc1ccc(S(=O)(=O)NC(=O)c2ccc(N3CCC([C@@H](O)c4ccccc4-c4ccc(Cl)cc4)CC3)cc2)cc1S(=O)(=O)C(F)(F)F [AZD4320] + CC(=O)O[C@H]1C(=O)[C@@]2(C)[C@H]([C@H](OC(=O)c3ccccc3)[C@]3(O)C[C@H](OC(=O)[C@H](O)[C@@H](NC(=O)c4ccccc4)c4ccccc4)C(C)=C1C3(C)C)[C@]1(OC(C)=O)CO[C@@H]1C[C@@H]2O [Paclitaxel] (first compound max 1 µM, 7x7, partner max 3 µM)
Result string: 0.566

Query string: Give the value of combination Emax reported for the following: CC1(C)CCC(CN2CCN(c3ccc(C(=O)NS(=O)(=O)c4ccc(NCC5CCOCC5)c([N+](=O)[O-])c4)c(Oc4cnc5[nH]ccc5c4)c3)CC2)=C(c2ccc(Cl)cc2)C1 [Venetoclax] + CCN(CCO)CCCOc1ccc2c(Nc3cc(CC(=O)Nc4cccc(F)c4)[nH]n3)ncnc2c1 [AZD2811] (first compound max 1 µM, 7x7, partner max 1 µM)
Result string: 0.186

Query string: // Input: CCc1c2c(nc3ccc(O)cc13)-c1cc3c(c(=O)n1C2)COC(=O)[C@]3(O)CC [SN-38] + CN(C)CCCOc1ccc(-c2ccc3ncc4c(c3c2)n(C2CCOCC2)c(=O)n4C)cn1 [AZD0156] (first compound max 0.3 µM, 7x7, partner max 1 µM) . Output its combination Emax only.
Result string: 0.608
